Molecular target: human glucagon receptor (human, UniProt P47871 26-477)
Assay: cell-based or functional assay
Starred links: 1 amine or outer side, 2 acyl side, 3 side chain; linkers in the order of their positions; H or OH if unused. Non-standard residues stand in square brackets, D forms with d. No end group written: not given here. NMe2F‑APPA = N-methyl-2-amino-5-(2-fluorophenyl)pentanoic acid, CN([C@@H](CCCc1ccccc1F)C(=O)[*:2])[*:1]; 2F,4CF3‑APPA = 2-amino-5-(2-fluoro-4-(trifluoromethyl)phenyl)pentanoic acid; Bip(2'-Et-4'-OMe) = CCc1cc(OC)ccc1-c1ccc(C[C@H](N)C(=O)O)cc1; Leu(5,5,5,5',5',5'-F6) = N[C@@H](CC(C(F)(F)F)C(F)(F)F)C(=O)O; Nva(5-(3,5-Me2Ph)) = Cc1cc(C)cc(CCC[C@H](N)C(=O)O)c1; 2F‑APPA = 2-amino-5-(2-fluorophenyl)pentanoic acid; αMePhe(2-F) = C[C@](N)(Cc1ccccc1F)C(=O)O; NMeBip(OMe) = N-methylated Bip(OMe); hhPhe = N[C@@H](CCCc1ccccc1)C(=O)O; NMeD = CN[C@@H](CC(=O)O)C(=O)O; aThr = C[C@H](O)[C@H](N)C(=O)O; NMeAPPA = not defined here; Ac5c = NC1(C(=O)O)CCCC1; CNB = not defined here; Ac3c = NC1(C(=O)O)CC1; Aib = CC(C)(N)C(=O)O
quantity: inhibition of cAMP production, 10 µM (pmol/ml/µg prt)

Known results for binders:
HSQGTFTSD[Bip(2'-Et-4'-OMe)][2F‑APPA] [Seq. ID. No. 45: HSQGTFTSD-Bip(OMe)-(2F-APPA)]	2
H[Aib]QG[aThr][αMePhe(2-F)][aThr]SD[Bip(2'-Et-4'-OMe)][hhPhe] (also: reduced (CH2) bond between 10 and 11) [Seq. ID. No. 189: H-Aib-QG-T(allo)-(α-Me-2F-Phe)-T(allo)-SD-Bip(OMe)-(CH2)-(APPA)]	0
H[Aib][CNB]G[aThr][αMePhe(2-F)][aThr]S[NMeD][NMeBip(OMe)][NMe2F‑APPA] (reading uncertain)	0

I. H[Ac3c]QGTFTSD[Bip(2'-Et-4'-OMe)][Nva(5-(3,5-Me2Ph))] [Seq. ID. No. 22: H-(ACP)-QGTFTSD-Bip(OMe)-(ADMP)]
II. HSQGTFTSD[Bip(2'-Et-4'-OMe)][2F,4CF3‑APPA] [Seq. ID. No. 49: HSQGTFTSD-Bip(OMe)-(2F, 4CF3-APPA)]
Hi, I'm comparing two records. Which one has the lower inhibition of cAMP production, 10 µM, I or II ? Select an item and report its label.
II

a. H[Aib][CNB]G[aThr][αMePhe(2-F)]TSD[Bip(2'-Et-4'-OMe)][hhPhe] (reading uncertain) [Seq. ID. No. 110: H-Aib-(CNB)-G-T(allo)-(α-Me-2F-Phe)-TSD-Bip(OMe)-(APPA)]
b. H[Aib][CNB]G[aThr][αMePhe(2-F)][aThr]SD[NMeBip(OMe)][NMeAPPA] (reading uncertain) [Seq. ID. No. 142: H-Aib-(CNB)-G-T(allo)-(α-Me-2F-Phe)-T(allo)-SD-((NMe)Bip(OMe))-((NMe)(APPA))]
c. H[Aib][CNB]GTFTSD[Bip(2'-Et-4'-OMe)][2F‑APPA] (reading uncertain) [Seq. ID. No. 77: H-Aib-(CNB)-GTFTSD-Bip(OMe)-(2F-APPA)]
d. H[Ac5c]QGTFTSD[Bip(2'-Et-4'-OMe)][Nva(5-(3,5-Me2Ph))] [Seq. ID. No. 26: H-(APP)-QGTFTSD-Bip(OMe)-(ADMP)]
Order the records, beginning with the lowest inhibition of cAMP production, 10 µM and ending with the highest. When ranking, write the labels in the order the request describes.
b, d, a, c
(b: 0 pmol/ml/µg prt, d: 2 pmol/ml/µg prt, a: 6 pmol/ml/µg prt, c: 12 pmol/ml/µg prt)

I. H[Aib][CNB]GT[αMePhe(2-F)][aThr]SD[Bip(2'-Et-4'-OMe)][2F‑APPA] (reading uncertain) [Seq. ID. No. 120: H-Aib-(CNB)-GT-(α-Me-2F-Phe)-T(allo)-SD-Bip(OMe)-(2F-APPA)]
II. H[Aib][Leu(5,5,5,5',5',5'-F6)]G[aThr][αMePhe(2-F)][aThr]SD[Bip(2'-Et-4'-OMe)][hhPhe] [Seq. ID. No. 228: H-Aib-(Hfl)-G-T(allo)-(α-Me-2F-Phe)-T(allo)-SD-Bip(OMe)-(APPA)]
III. H[Aib][CNB]GTFTSD[Bip(2'-Et-4'-OMe)][Nva(5-(3,5-Me2Ph))] (reading uncertain) [Seq. ID. No. 30: H-Aib-(CNB)-GTFTSD-Bip(OMe)-(ADMP)]
Order the records, beginning with the lowest inhibition of cAMP production, 10 µM and ending with the highest. When ranking, write the labels in the order the request describes.
I, II, III
(I: 0 pmol/ml/µg prt, II: 12 pmol/ml/µg prt, III: 18 pmol/ml/µg prt)

Ref: patent US20120021972A1
